Target: S1P1 (Homo sapiens (Human))
Sequence (P21453 whole entry, species assumed): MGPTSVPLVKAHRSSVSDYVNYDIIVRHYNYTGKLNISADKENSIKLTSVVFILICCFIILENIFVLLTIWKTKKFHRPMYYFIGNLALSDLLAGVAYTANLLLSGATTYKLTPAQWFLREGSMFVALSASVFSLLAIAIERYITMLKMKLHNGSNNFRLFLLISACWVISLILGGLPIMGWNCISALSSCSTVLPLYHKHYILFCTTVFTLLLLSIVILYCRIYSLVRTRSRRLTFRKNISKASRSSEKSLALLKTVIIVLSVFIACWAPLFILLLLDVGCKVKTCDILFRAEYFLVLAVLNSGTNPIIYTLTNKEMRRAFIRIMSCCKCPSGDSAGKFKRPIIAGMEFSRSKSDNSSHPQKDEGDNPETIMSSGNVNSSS
Assay: 35S-GTPγS binding, membranes from CHO cells expressing S1P1
Conditions: CHO cell membranes
Procedure: Cells were suspended in 50 mM TRIS, pH 7.4, 2 mM EDTA, 250 mM Sucrose (buffer A) and 1× Complete protease inhibitor cocktail (Roche), and disrupted at 4° C. by N2 decompression using a cell disruption bomb (Parr Instrument). […] Specific binding was calculated by subtracting remaining radioactivity in the presence of 1000-fold excess of unlabeled SIP. Binding data were analyzed using the GraphPad Prism program. […]
The recorded EC50 of each item maps onto one of these classes: low interval (below 10 nM), middle interval (10 nM to below 200 nM), high interval (200 nM or more)

>>> cat("Fc1ccc(F)c(-c2noc(-c3cnn(Cc4ccccc4)c3-c3ccncc3)n2)c1")
"middle interval"
>>> cat("COCc1c(-c2nc(-c3ccc(CN(C)C)cc3)no2)cnn1C1CCCCC1")
"middle interval"
>>> cat("COCc1c(-c2nc(-c3ccc(CNCC(O)CO)cc3)no2)cnn1C1CCCCC1 (stereo not drawn)")
"middle interval"
>>> cat("CC(C)Cn1ncc(-c2nc(-c3ccc(CN4CC(O)C4)cc3)no2)c1-c1ccncc1")
"middle interval"
>>> cat("FC(F)(F)c1cccc(-c2nc(-c3cnn(C4CCCCC4)c3-c3ccccc3)no2)c1")
"high interval"
>>> cat("O=C(O)CCNCc1ccc(-c2noc(-c3cnn(C4CCCCC4)c3-c3ccncc3)n2)cc1")
"low interval"
>>> cat("CCCc1c(-c2nc(-c3cccc(S(C)(=O)=O)c3)no2)cnn1-c1ccccc1")
"high interval"
>>> cat("OC1CN(Cc2ccc(-c3noc(-c4cnn(C5CCCCC5)c4-c4ccncc4)n3)cc2)C1")
"low interval"
>>> cat("CCCc1c(-c2nc(-c3cc(F)ccc3F)no2)cnn1-c1ccccc1")
"middle interval"
>>> cat("Fc1ccc(F)c(-c2noc(-c3cnn(C4CCCCC4)c3-c3ccncc3)n2)c1")
"low interval"
>>> cat("c1cc(-c2c(-c3nc(-c4ccc(CN5CCC5)cc4)no3)cnn2C2CCCCC2)ccn1")
"middle interval"
>>> cat("Fc1ccc(F)c(-c2noc(-c3cnn(-c4ccccc4F)c3-c3ccccc3)n2)c1")
"middle interval"
>>> cat("COCc1c(-c2nc(-c3ccc(CCN(C)C)cc3)no2)cnn1C1CCCCC1")
"middle interval"
>>> cat("COCCc1c(-c2nc(-c3ccc(CN4CC(C(=O)O)C4)cc3)no2)cnn1C1CCCCC1")
"low interval"
>>> cat("O=C(O)C1CN(Cc2ccc(-c3noc(-c4cnn(C5CCCCC5)c4C4CCOCC4)n3)cc2)C1")
"low interval"
>>> cat("COCc1c(-c2nc(-c3ccc(CN4CCC(C(=O)O)CC4)cc3)no2)cnn1C1CCCCC1")
"middle interval"
>>> cat("CC(C)(C)Cn1ncc(-c2nc(-c3ccc(CO)cc3)no2)c1-c1ccncc1")
"high interval"
>>> cat("CC(C)Cn1ncc(-c2nc(-c3ccc(CN4CC(C(=O)O)C4)cc3)no2)c1C1CCOCC1")
"middle interval"
>>> cat("CC(C)Cn1ncc(-c2nc(-c3ccc4c(c3)CNCC4)no2)c1-c1ccncc1")
"middle interval"
>>> cat("c1cc(-c2c(-c3nc(-c4ccc(Cn5cncn5)cc4)no3)cnn2C2CCCCC2)ccn1")
"low interval"
>>> cat("CC(C)Cn1ncc(-c2nc(-c3ccc(CO)cc3)no2)c1C1CCOCC1")
"high interval"

----------
Target: S1P1 (Homo sapiens (Human))
Experiment: 35S-GTPγS binding, membranes from CHO cells expressing S1P1
Conditions: CHO cell membranes
EC50 listing for selected compounds.
Endpoint: EC50 (nM)

>>> value_reported("COCc1c(-c2nc(-c3ccc(CCO)cc3)no2)cnn1C1CCCCC1")
312
>>> value_reported("CC(C)Cn1ncc(-c2nc(-c3cc(F)ccc3F)no2)c1-c1ccccc1")
36
>>> value_reported("FC(F)(F)c1cccc(-c2noc(-c3cnn(C4CCCCC4)c3C3CCOCC3)n2)c1")
361
>>> value_reported("O=C(O)C1CN(Cc2ccc(-c3noc(-c4cnn(CC5CC5)c4-c4ccncc4)n3)cc2)C1")
12

----------
Target: S1P3 (Homo sapiens (Human))
Sequence (Q99500 whole entry, species assumed): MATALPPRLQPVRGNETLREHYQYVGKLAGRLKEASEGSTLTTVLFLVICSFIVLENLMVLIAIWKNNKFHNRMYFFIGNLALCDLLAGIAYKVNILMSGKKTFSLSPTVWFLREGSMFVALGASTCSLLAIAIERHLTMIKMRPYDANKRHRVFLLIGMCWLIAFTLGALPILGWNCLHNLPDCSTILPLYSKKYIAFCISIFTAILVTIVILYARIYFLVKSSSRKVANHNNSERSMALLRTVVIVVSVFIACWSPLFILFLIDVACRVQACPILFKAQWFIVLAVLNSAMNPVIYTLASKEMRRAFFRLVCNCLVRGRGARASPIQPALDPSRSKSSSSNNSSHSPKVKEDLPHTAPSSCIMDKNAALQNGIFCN
Experiment: 35S-GTPγS binding, membranes from CHO cells expressing S1P3
Conditions: CHO cell membranes
Endpoint: EC50 (nM)

>>> value_reported("OCc1ccc(-c2noc(-c3cnn(C4CCCCC4)c3C3CCCO3)n2)cc1 (centres unmarked) [Example 117]")
622
>>> value_reported("CC(C)Cn1ncc(-c2nc(-c3ccc(CNCCC(=O)O)cc3)no2)c1-c1ccncc1 [Example 89]")
1640
>>> value_reported("CC(C)Cn1ncc(-c2nc(-c3ccc(CN4CC(C(=O)O)C4)cc3)no2)c1C1CCOCC1 [Example 96]")
2250
>>> value_reported("COCCc1c(-c2nc(-c3ccc(CN4CC(C(=O)O)C4)cc3)no2)cnn1C1CCCCC1 [Example 120]")
489
>>> value_reported("O=C(O)C1CN(Cc2ccc(-c3noc(-c4cnn(CC5CC5)c4-c4ccncc4)n3)cc2)C1 [Example 101]")
1620

----------
The following molecules are shown together with reported Ki values.
Target: UniProt:P21453
Assay: Receptor binding assay, [33P]sphingosine 1-phosphate, membranes from CHO cells expressing S1P1
Settings: CHO cell membranes, 25 pM [33P]sphingosine 1-phosphate
Endpoint: Ki (nM)

>>> value_reported("O=C(O)C1CN(Cc2ccc(-c3noc(-c4cnn(CC5CC5)c4-c4ccncc4)n3)cc2)C1")
1.8
>>> value_reported("COCc1c(-c2nc(-c3cccc(CCC(=O)O)c3)no2)cnn1C1CCCCC1")
116
>>> value_reported("COCc1c(-c2nc(-c3cccc(COCC(=O)O)c3)no2)cnn1C1CCCCC1 [Example 135]")
41.5

----------
Biological target: S1P1 (Homo sapiens (Human))
Assay: 35S-GTPγS binding, membranes from CHO cells expressing S1P1
Details: CHO cell membranes
pEC50: −log10 of the molar value.
Cut-off 7 on pEC50, inclusive. At or above means met; below means not met.

>>> cat("COCc1c(-c2nc(-c3ccc(CNC(C)C)cc3)no2)cnn1C1CCCCC1 [Example 121]")
"met"
>>> cat("Fc1ccc(F)c(-c2noc(-c3cnn(C4CCCCC4)c3C3CCOCC3)n2)c1 [Example 31]")
"met"
>>> cat("CC(C)Cn1ncc(-c2nc(-c3cccc(C(F)(F)F)c3)no2)c1C1CCOCC1 [Example 50]")
"not met"
>>> cat("CC(C)Cn1ncc(-c2nc(-c3ccc(CN4CCC(O)C4)cc3)no2)c1-c1ccncc1 (stereo not shown) [Example 80]")
"not met"
>>> cat("O=C(O)C1CCN(Cc2ccc(-c3noc(-c4cnn(C5CCCCC5)c4-c4ccncc4)n3)cc2)CC1 [Example 71]")
"met"
>>> cat("COCc1c(-c2nc(-c3ccc(CO)cc3)no2)cnn1C1CCCCC1 [Example 49]")
"not met"
>>> cat("OC1CCN(Cc2ccc(-c3noc(-c4cnn(C5CCCCC5)c4-c4ccncc4)n3)cc2)C1 (stereo not shown) [Example 45]")
"met"
>>> cat("CC(C)(C)Cn1ncc(-c2nc(-c3cccc(C(F)(F)F)c3)no2)c1-c1ccncc1 [Example 90]")
"met"
>>> cat("OCCNCc1ccc(-c2noc(-c3cnn(C4CCCCC4)c3-c3ccncc3)n2)cc1 [Example 56]")
"met"
>>> cat("CS(=O)(=O)c1cccc(-c2noc(-c3cnn(-c4ccccc4F)c3-c3ccncc3)n2)c1 [Example 9]")
"met"
>>> cat("Cc1c(-c2nc(-c3cc(F)ccc3F)no2)cnn1C1CCCCC1 [Example 86]")
"not met"
>>> cat("CNCc1ccc(-c2noc(-c3cnn(C4CCCCC4)c3C3CCOCC3)n2)cc1 [Example 88]")
"met"
